# ASSAY_OVERVIEW: 2D NMR structural score versus reference peptide
# Type: physicochemical
# Design: key: +++ indicates the peptide is structured similarly to IGE063 (SEQ ID NO:49); + indicates the peptide is structured similarly to IGE063 (SEQ ID NO:49), but is less stable; −/+ indicates the peptide has some elements of stable structure, but the conformation differs from the reference structure (e.g., a different turn type is evident); − indicates the peptide is predominantly unstructured in aqueous solution
# CONDITION_LABEL: reference IGE063
Where a SMILES comes first, the peptide text is derived from it. Bridges are numbered along the chain shown (N, C = ends). [ ]: non-standard residue; d: D form.
EXPERIMENTAL_ENDPOINT: Struct. Score

CC(C)C[C@H](NC(=O)[C@@H](N)CC(N)=O)C(=O)N1CCC[C@H]1C(=O)N[C@@H](CCCNC(=N)N)C(=O)N[C@H]1CSSC[C@@H](C(N)=O)NC(=O)[C@H](C(C)C)NC(=O)[C@H](Cc2c[nH]c3ccccc23)NC(=O)CNC(=O)[C@H](Cc2c[nH]c3ccccc23)NC(=O)[C@@H]2CCCN2C(=O)CNC(=O)[C@H](CCC(=O)O)NC(=O)[C@H]([C@@H](C)O)NC1=O [IGE091, NLPRCTEGPWGWVC-nh2] (H-NLPRCTEGPWGWVC-NH2; disulfide 5-14)    +++
CSCC[C@H](NC(=O)[C@H]1CSSC[C@H](NC(=O)[C@H](CCCNC(=N)N)NC(=O)[C@@H]2CCCN2C(=O)[C@H](CC(C)C)NC(=O)[C@H](CC(N)=O)NC(C)=O)C(=O)N[C@@H]([C@@H](C)O)C(=O)N[C@@H](CCC(=O)O)C(=O)NCC(=O)N2CCC[C@H]2C(=O)N[C@@H](Cc2c[nH]c3ccccc23)C(=O)NCC(=O)N[C@@H](Cc2c[nH]c3ccccc23)C(=O)N[C@@H](C(C)C)C(=O)N1)C(=O)O [IGE104, Ac-NLPRCTEGPWGWVcM] (Ac-NLPRCTEGPWGWV[dC]M-OH; disulfide 5-14; C-terminus assumed)    −
CSCC[C@H](NC(=O)[C@@H]1CSSC[C@H](NC(=O)[C@H](CCCNC(=N)N)NC(=O)[C@@H]2CCCN2C(=O)[C@H](CC(C)C)NC(=O)[C@@H](N)CC(N)=O)C(=O)N[C@@H]([C@@H](C)O)C(=O)N[C@@H](CCC(=O)O)C(=O)NCC(=O)N2CCC[C@H]2C(=O)N[C@@H](Cc2c[nH]c3ccccc23)C(=O)N[C@@H](C)C(=O)N[C@@H](Cc2c[nH]c3ccccc23)C(=O)N[C@@H](C(C)C)C(=O)N1)C(=O)O [IGE074, NLPRCTEGPWAWVCM] (H-NLPRCTEGPWAWVCM-OH; disulfide 5-14)    +
